Source listed as paper PMC11784839.

- SYSTEM TESTED: tau (Homo sapiens, UniProt P10636)
- Sequence (P10636 623-695 limits assumed): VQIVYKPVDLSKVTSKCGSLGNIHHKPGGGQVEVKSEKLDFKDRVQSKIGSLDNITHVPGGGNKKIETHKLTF
- RUN DESCRIPTION: MCE Phenols Library screening, tau biosensor cell seeding assay (AvZ)
- Format: cell-based
- ASSAY CONTEXT: average of raw data 1 and 2
Doc: threshold 20000 (exclusive). Items with av puncta beneath it return satisfied; others return not satisfied.

Consider the molecule COc1ccc(-c2oc3c(CC=C(C)C)c(O)cc(O)c3c(=O)c2O)cc1 [Icaritin] . Is its av puncta strictly less than 20000? not satisfied

Consider the molecule CCCCCC/C=C\CCCCCCCCCc1cccc(O)c1C(=O)O [Ginkgolic acid C17:1] . Is its av puncta strictly less than 20000? not satisfied

Consider the molecule COc1ccc(-c2cc(=O)c3c(O)c(OC)c(OC)cc3o2)cc1O [Eupatorin] . Is its av puncta strictly less than 20000? not satisfied

Consider the molecule O=C(O)Cc1ccccc1O [2-Hydroxyphenylacetic acid] . Is its av puncta strictly less than 20000? satisfied

Consider the molecule CCC1(O)C(=O)OCc2c1cc1n(c2=O)Cc2cc3cc(O)ccc3nc2-1 (racemic) [(±)-10-Hydroxycamptothecin] . Is its av puncta strictly less than 20000? not satisfied

Consider the molecule CC1(C)C=Cc2c(ccc3c2OC[C@@H](c2ccc(O)cc2O)C3)O1 [Glabridin] . Is its av puncta strictly less than 20000? not satisfied

Consider the molecule Oc1cccc(O)c1O [Pyrogallol] . Is its av puncta strictly less than 20000? satisfied

Consider the molecule COc1ccc2c(c1)OC[C@@H](c1cc(O)c(OC)c(OC)c1O)C2 [Colutehydroquinone] . Is its av puncta strictly less than 20000? not satisfied

Consider the molecule N#CCc1ccc(O)cc1 [4-Hydroxybenzyl cyanide] . Is its av puncta strictly less than 20000? satisfied

Consider the molecule CCCC(=O)c1c(O)c(Cc2c(O)c(Cc3c(O)c(C)c(OC)c(C(=O)CCC)c3O)c(O)c(C(=O)[C@@H](C)CC)c2O)c(O)c(C)c1OC [Agrimol B] . Is its av puncta strictly less than 20000? satisfied

Consider the molecule OCc1ccc(O[C@@H]2O[C@H](CO)[C@@H](O)[C@H](O)[C@H]2O)cc1 [Gastrodin] . Is its av puncta strictly less than 20000? satisfied

Consider the molecule COc1ccc2cc3[n+](cc2c1OC)CCc1cc(O)c(O)cc1-3 [Demethyleneberberine] . Is its av puncta strictly less than 20000? satisfied

Consider the molecule COc1ccc(-c2cc(=O)c3c(O)c(OC)c(OC)cc3o2)cc1OC [5-Desmethylsinensetin] . Is its av puncta strictly less than 20000? satisfied

Consider the molecule O=C(O)[C@H]1O[C@@H](Oc2c(-c3ccc(O)c(O)c3)oc3cc(O)cc(O)c3c2=O)[C@H](O)[C@@H](O)[C@@H]1O [Miquelianin] . Is its av puncta strictly less than 20000? not satisfied

Consider the molecule CCc1cccc(C)c1O [2-Ethyl-6-methylphenol] . Is its av puncta strictly less than 20000? not satisfied

Consider the molecule O=C(O)C[C@@H]1C(=O)O[C@H]2[C@@H]3OC(=O)c4cc(O)c(O)c(O)c4-c4c(cc(O)c(O)c4O)C(=O)OC[C@H]2O[C@@H](OC(=O)c2cc(O)c(O)c(O)c2)[C@@H]3OC(=O)c2cc(O)c(O)c3c2[C@H]1[C@H](O)C(=O)O3 [Chebulagic acid] . Is its av puncta strictly less than 20000? satisfied
